Source: ChEMBL document CHEMBL1201862

system: COLO 205; test: NCI tumour cell line growth inhibition, 48 h
Calls of active or inactive are those of the source. No stated cut-off is given here; in the data, active = GI50 up to about 1.1 µM and inactive = higher.
quantity_kind: GI50

Previously resolved entries follow.
[
  {
    "molecule": "O=C(O)C1CC(O)CN1 (stereo not given)",
    "GI50": "> 100 µM (inactive)"
  },
  {
    "molecule": "COC(=O)c1c(OC(C)=O)ccc2c1c1c(OC(C)=O)c3ccccc3c(OC(C)=O)c1n2C",
    "GI50": "29.2 µM (inactive)"
  },
  {
    "molecule": "COC(=O)/C=C(\\C)C(=O)N(C)c1ccccc1I",
    "GI50": "> 100 µM (inactive)"
  },
  {
    "molecule": "COC(=O)C12OCC34C(CC5C(C)C6=CC(=O)OC6=CC5(C)C3C(O)C1O)OC(=O)C(OC(C)=O)C24 (stereo not given)",
    "GI50": "8.07 µM (inactive)"
  }
]

Next, consider the following molecule.
Note to self: GI50 recorded for `CCOC(=O)c1c[nH]c2cc3c(cc2c1=O)CCS3(=O)=O.CCOC(=O)c1c[nH]c2ccc3c(c2c1=O)S(=O)(=O)CC3` was > 100 µM (inactive)

* * *

Reported GI50 is given for each of the following compounds.
tested on: SK-MEL-28; experiment: NCI tumour cell line growth inhibition, 48 h
Active and inactive are the calls of the source. Cut-off read from the data, not from the text of the source: active = GI50 up to about 1.1 µM and inactive = higher.

Worked cases, answers included:
[
  {
    "compound": "N#CC1=C(Cl)NC(Cl)=C(C#N)C1c1c(Cl)cccc1Cl",
    "quantity_kind": "GI50",
    "result": "35.2 µM (inactive)"
  },
  {
    "compound": "CCC(C)c1cnc(CC(C)C)c(=O)[nH]1 (stereo not given)",
    "quantity_kind": "GI50",
    "result": "> 100 µM (inactive)"
  },
  {
    "compound": "O=C1/C(=C/c2cccnc2)C(n2cccc2)c2c(Br)sc(Br)c21 (stereo not given)",
    "quantity_kind": "GI50",
    "result": "2.53 µM (inactive)"
  },
  {
    "compound": "BrC1=CC=C2NCCCCCC/N=C3\\C=CC(Br)=CC=C3NCCCCCC/N=C\\2C=C1",
    "quantity_kind": "GI50",
    "result": "> 25.5 µM (inactive)"
  }
]

Measured GI50, `CC(=O)/C(=C\c1ccccc1O)C(=O)Nc1ccccc1C` : 24.3 µM (inactive)

Measured GI50, `Cn1nc(-c2ccccc2NC(=O)C(F)(F)F)c(=O)n(C)c1=S` : 12 µM (inactive)

Noted for `COc1ccc2[nH]c3c(C)c4ccncc4c(C)c3c2c1` : its GI50 reads 2.09 µM (inactive)

Measured GI50 of N#Cc1c(-c2ccccc2)c(C#N)c(=S)n(C2OCC(O)C(O)C2O)c1N (stereo not given) : > 100 µM (inactive)

Memo: O=C(Nc1ccccc1)OC1OC(COC(=O)c2ccccc2)C(OC(=O)c2ccccc2)C1OS(=O)(=O)c1ccc([N+](=O)[O-])cc1 (stereo not given) , reported GI50: > 100 µM (inactive)

Entry CCCCC(=C=C1CCCCC1O)C1CCCN1C(=O)OC(C)(C)C (stereo not given) ; GI50 = 15.5 µM (inactive)

* * *

test system: UO-31; assay: NCI tumour cell line growth inhibition, 48 h
Activity calls are given as the source filed them. No stated cut-off is given here; in the data, active = GI50 up to about 1.1 µM and inactive = higher.
Each entry below carries its reported GI50.

Below, 5 molecules whose answers are already recorded.
[
  {
    "molecule": "Cc1ccc(NC(=O)/C(=N/N(C)C)C(C2OC(=O)c3ccccc32)[N+](=O)[O-])cc1 (stereo not given)",
    "measured_target": "UO-31",
    "result": "> 100 µM (inactive)"
  },
  {
    "molecule": "CCOC(=O)C1Cc2c(ccc(OC)c2OC)C(=O)C1N (stereo not given)",
    "measured_target": "UO-31",
    "result": "> 100 µM (inactive)"
  },
  {
    "molecule": "CCC1(O)CC(OC2CC(N(C)C)C(OC3CC(O)C(OC4OC(C)C(=O)C=C4N)C(C)O3)C(C)O2)c2c(O)c3c(c(O)c2C1C(=O)OC)C(=O)c1cccc(O)c1C3=O (stereo not given)",
    "measured_target": "UO-31",
    "result": "0.0472 µM (active)"
  },
  {
    "molecule": "CC(=O)OC(/C=C/c1ccccc1)=C(OC(C)C)/C1=C(\\c2ccccc2)SCCCSC1=O",
    "measured_target": "UO-31",
    "result": "> 100 µM (inactive)"
  },
  {
    "molecule": "CC(C)(C)OC(=O)N1C(OP(=O)(Oc2ccccc2)Oc2ccccc2)=CSc2ccccc21",
    "measured_target": "UO-31",
    "result": "27.4 µM (inactive)"
  }
]

Recorded GI50 (molecule `O=C(Nc1ccccc1F)c1cc2ccc(O)cc2o/c1=N\c1ccccc1F` ): 1.93 µM (inactive)

Measured GI50 of CN(C)C(C1=C(O)C(c2ccccc2)N(c2ccccc2)C1=O)N1CCOCC1 (stereo not given) : > 10 µM (inactive)

GI50 measured on CC(C)(C)[Si](C)(C)OCC1OC(n2cc(F)c(=O)[nH]c2=O)CC1O[Si](C)(C)C(C)(C)C (stereo not given) = 10.8 µM (inactive)

Recorded result, O=C1C(/C=N/CCc2c[nH]c3ccccc23)C(C(F)(F)F)=NN1c1nc2ccccc2s1 (stereo not given) , GI50: 31.3 µM (inactive)

Reported GI50 for `Cn1[nH]nn/c1=N\N=C\c1ccccc1` was > 10 µM (inactive)

* * *

tested on: SK-OV-3; assay: NCI tumour cell line growth inhibition, 48 h
Active and inactive are the calls of the source. Rule as the data show it: active = GI50 up to about 1.1 µM and inactive = higher. Non-standard residues stand in square brackets, D forms with d. Residues, ends and D or L forms follow the SMILES beside them. *: point of attachment. Benzoyl(4-OMe) = COc1ccc(C(=O)*)cc1; 2Thi = N[CH](Cc1cccs1)C(=O)O
# maps each entry to its GI50

Known results for compounds:
[
  {
    "compound": "CCOP(=O)(CCCC(O)CNc1cc(Cl)nc(N)n1)OCC (centres undefined)",
    "result": "> 100 µM (inactive)"
  },
  {
    "compound": "CN(C)CC1CCC/C(=C\\c2ccc(Cl)c(Cl)c2)C1=O (centres undefined)",
    "result": "6.78 µM (inactive)"
  },
  {
    "compound": "CCC(C)C(NC(=O)C(Cc1cccs1)NC(=O)C(CC(C)C)NC(=O)C(CC(C)C)NC(=O)C(CCCCN)NC(=O)C(CCCNC(=N)N)NC(=O)c1ccc(OC)cc1)C(=O)NC(CC(C)C)C(N)=O (centres undefined) ({Benzoyl(4-OMe)}-RKLL[2Thi]IL-NH2; configuration not given here)",
    "result": "> 100 µM (inactive)"
  }
]

Noted GI50 for CCC1OC2C(CC=C(C)C)=C3OC(C)(O)C(C)(CC)C(OC(C)=O)C3=C3OC(=O)C=C1C32 (centres undefined) , tested on SK-OV-3: 33.6 µM (inactive)

Record `C/C(=N\NC(=O)CC(=O)N(C(=O)c1ccc(Cl)cc1)c1ccc(C)cc1)c1ccccc1O` has SK-OV-3 GI50 equal to > 100 µM (inactive)

* * *

Quick reference for GI50 among some compounds
system: A498; experiment: NCI tumour cell line growth inhibition, 48 h
Calls of active or inactive are those of the source. No stated cut-off is given here; in the data, active = GI50 up to about 1.1 µM and inactive = higher.

Here is how some compounds turned out for GI50.
[
  {
    "compound": "Cc1ccc(NC(=O)/C(=N/N(C)C)C(C2OC(=O)c3ccccc32)[N+](=O)[O-])cc1 (stereo not given)",
    "GI50": "> 100 µM (inactive)"
  },
  {
    "compound": "CCCCCCCCCCCC(=O)c1c(O)cc(C)oc1=O",
    "GI50": "81.8 µM (inactive)"
  },
  {
    "compound": "CC(=O)OC1(C)C=CC(=O)C=C1",
    "GI50": "31.6 µM (inactive)"
  },
  {
    "compound": "Cc1c(NC(=S)NC(=O)c2ccc([N+](=O)[O-])cc2)c(=O)n(-c2ccccc2)n1C",
    "GI50": "> 100 µM (inactive)"
  },
  {
    "compound": "C[N+]1([O-])C2CCC1CC(OC(=O)C(CO)c1ccccc1)C2 (stereo not given)",
    "GI50": "> 100 µM (inactive)"
  }
]

What the record says about `CS(=O)(=O)CC1=Nc2nnc(CCCCCCCc3nnc4n3C(=O)C(CS(C)(=O)=O)=N4)n2C1=O` : GI50 is > 100 µM (inactive)

Measured GI50, `CCOC(=O)[C@@H]1OC(c2ccccc2)O[C@H]1C(=O)OCC` : > 100 µM (inactive)

The reported GI50 of the compound `Cc1ncc([N+](=O)[O-])n1CCN(C)CCCCn1ccnc1[N+](=O)[O-]` was > 100 µM (inactive)

// GI50 lookup, compound = `CCCNC(=O)Nc1ccc2c(c1)Cc1cc(N(CCCl)CCCl)ccc1-2` , result: 10.6 µM (inactive)

Form field GI50, entry `O=C(O/N=C1/CCC/C1=C\c1ccccc1)c1ccc([N+](=O)[O-])cc1` : > 100 µM (inactive)
